Source of measurements: patent US11377442B2

Test system: Renilla
Assay: Renilla signal in NR2F6 agonist screening, cmpd/DMSO
Assay type: cell-based
Settings: Renilla, F4; 10% FBS; 2 uM; read-out: Renilla, F4, 10% FBS, cmpd/DMSO (mean)
# MET = fold induction at 2 µM below 1 (exclusive); NOT MET = fold induction at 2 µM at/above 1

>  <COMPOUND>
CCCCN[C@H]1CS(=O)(=O)C[C@@H]1S(=O)(=O)c1ccc(Cl)cc1

>  <CLASS>
NOT MET

$$$$
>  <COMPOUND>
Cc1cccc(CN[C@H]2CS(=O)(=O)C[C@@H]2S(=O)(=O)c2ccc(Cl)cc2)c1

>  <CLASS>
NOT MET

$$$$
>  <COMPOUND>
CCC(C)N[C@H]1CS(=O)(=O)C[C@@H]1S(=O)(=O)c1ccc(Cl)cc1 (stereo partly drawn)

>  <CLASS>
NOT MET

$$$$
>  <COMPOUND>
CCCCN(C)[C@H]1CS(=O)(=O)C[C@@H]1S(=O)(=O)c1ccc(Cl)cc1

>  <CLASS>
NOT MET

$$$$
>  <COMPOUND>
O=S1(=O)C[C@H](N2CCCCC2)[C@@H](S(=O)(=O)c2ccc(Cl)cc2)C1

>  <CLASS>
NOT MET

$$$$
>  <COMPOUND>
O=S1(=O)C[C@H](NC2CCCCC2)[C@@H](S(=O)(=O)c2ccccc2)C1

>  <CLASS>
NOT MET

$$$$
>  <COMPOUND>
CC(=O)N1CCN([C@H]2CS(=O)(=O)C[C@@H]2S(=O)(=O)c2ccc(F)c(C)c2)CC1

>  <CLASS>
MET

$$$$
>  <COMPOUND>
COCCCN[C@H]1CS(=O)(=O)C[C@@H]1S(=O)(=O)c1ccc(Cl)cc1

>  <CLASS>
NOT MET

$$$$
>  <COMPOUND>
CC(C)CN[C@H]1CS(=O)(=O)C[C@@H]1S(=O)(=O)c1ccc(Cl)cc1

>  <CLASS>
NOT MET

$$$$
>  <COMPOUND>
O=S1(=O)C[C@H](N2CCCCC2)[C@@H](S(=O)(=O)c2cccs2)C1

>  <CLASS>
NOT MET

$$$$
>  <COMPOUND>
C[C@@H]1C[C@H](C)CN([C@H]2CS(=O)(=O)C[C@@H]2S(=O)(=O)c2cccs2)C1

>  <CLASS>
NOT MET

$$$$
>  <COMPOUND>
COCCN[C@H]1CS(=O)(=O)C[C@@H]1S(=O)(=O)c1ccc(Cl)cc1

>  <CLASS>
MET

$$$$
>  <COMPOUND>
CC(C)OCCCN[C@H]1CS(=O)(=O)C[C@@H]1S(=O)(=O)c1ccc(Cl)cc1

>  <CLASS>
NOT MET

$$$$
>  <COMPOUND>
O=S1(=O)C[C@H](NCc2ccncc2)[C@@H](S(=O)(=O)c2cccs2)C1

>  <CLASS>
MET

$$$$
>  <COMPOUND>
O=S1(=O)C[C@H](NCCCc2ccccc2)[C@@H](S(=O)(=O)c2ccc(Cl)cc2)C1

>  <CLASS>
NOT MET

$$$$
>  <COMPOUND>
CC1CCN([C@H]2CS(=O)(=O)C[C@@H]2S(=O)(=O)c2cccs2)CC1

>  <CLASS>
NOT MET

$$$$
>  <COMPOUND>
O=S1(=O)C[C@H](NCc2ccco2)[C@@H](S(=O)(=O)c2cccs2)C1

>  <CLASS>
NOT MET

$$$$
>  <COMPOUND>
CC(C)N[C@H]1CS(=O)(=O)C[C@@H]1S(=O)(=O)c1ccc(Cl)cc1

>  <CLASS>
NOT MET

$$$$
>  <COMPOUND>
O=S1(=O)C[C@H](NC2CCCCCC2)[C@@H](S(=O)(=O)c2ccc(Cl)cc2)C1

>  <CLASS>
MET

$$$$
>  <COMPOUND>
CC(=O)Nc1ccc(S(=O)(=O)[C@H]2CS(=O)(=O)C[C@@H]2NC2CC2)cc1

>  <CLASS>
MET

$$$$
>  <COMPOUND>
O=S1(=O)C[C@H](N2CCCC2)[C@@H](S(=O)(=O)c2cccs2)C1

>  <CLASS>
NOT MET

$$$$
